assay: Oral bioavailability in Sprague-Dawley rat; type: ADME, organism-based; settings: in vivo
ATTRIBUTE MEASURED: bioavailability (%)
# unit: % | format: bare number

Prompt: Item `CCn1nc2c(-c3ccc(Cl)cc3)c(-c3cnc(C)nc3)c(=O)n(Cc3ccc(C(F)(F)F)nc3C)n2c1=O` has what recorded bioavailability?
Response: 73

Prompt: Item `CCn1nc2c(-c3ccc(Cl)cc3)c(-c3ccncc3)c(=O)n(Cc3ccc(C(F)(F)F)nc3C)n2c1=O` has what recorded bioavailability?
Response: 50

---

assay: Fraction unbound in human plasma at 10 uM by equilibrium dialysis method; type: ADME, cell-free
ATTRIBUTE MEASURED: fraction unbound at 10 µM
# print the numeric value only

Prompt: Item `CCn1nc2c(-c3ccc(Cl)cc3)c(-c3cnc(C)nc3)c(=O)n(Cc3ccc(C(F)(F)F)nc3C)n2c1=O` has what recorded fraction unbound at 10 µM?
Response: 0.07

---

test: Terminal half life in Sprague-Dawley rat at 3 mg/kg, iv; assay type: ADME, organism-based; set-up: dose 3 mg/kg, route intravenous; details: in vivo, read-out: beta t1/2 (converted)
Give log10 half-life for every item shown.
Each number you see is log10 of half-life, and the unit inside the log is h.

Prompt: Item `CCn1nc2c(-c3ccc(Cl)cc3)c(-c3ccc(C#N)cc3)c(=O)n(Cc3ccc(C(F)(F)F)nc3C)n2c1=O` has what recorded log10 half-life?
Response: 0.85

Prompt: Item `COc1nn2c(=O)n(Cc3ccc(C(F)(F)F)nc3)nc2c(-c2ccncc2)c1-c1ccc(Cl)cc1` has what recorded log10 half-life?
Response: 1.23

Prompt: Item `O=c1n(Cc2ccc(C(F)(F)F)nc2)nc2c(-c3ccncc3)c(-c3ccc(Cl)cc3)cnn12` has what recorded log10 half-life?
Response: 1.18

Prompt: Item `Cn1nc2c(-c3ccc(Cl)cc3)c(-c3ccncc3)c(=O)n(Cc3ccc(C(F)(F)F)nc3)n2c1=O` has what recorded log10 half-life?
Response: 0.78

Prompt: Item `Cn1nc2c(-c3ccc(Cl)cc3)c(-c3ccncc3)c(=O)n(Cc3ccc(C#N)cc3)n2c1=O` has what recorded log10 half-life?
Response: 0.54

Prompt: Item `Cn1c(=O)c(-c2ccc(Cl)cc2)c(-c2ccncc2)c2nn(Cc3ccc(C(F)(F)F)nc3)c(=O)n21` has what recorded log10 half-life?
Response: 1.54

Prompt: Item `CCn1nc2c(-c3ccc(Cl)cc3)c(-c3cnc(C)nc3)c(=O)n(Cc3ccc(C(F)(F)F)nc3C)n2c1=O` has what recorded log10 half-life?
Response: 0.70

Prompt: Item `Cc1nc(C(F)(F)F)ccc1Cn1c(=O)c(-c2ccncc2)c(-c2ccc(Cl)cc2)c2nn(C)c(=O)n21` has what recorded log10 half-life?
Response: 0.52

Prompt: Item `CCCn1nc2c(-c3ccc(Cl)cc3)c(-c3ccc(C#N)cc3)c(=O)n(Cc3ccc(C(F)(F)F)nc3C)n2c1=O` has what recorded log10 half-life?
Response: 1.46

---

experiment: Lipophilicity, log P of the compound by HPLC analysis; assay type: physicochemical
Mark Criterion met only when logP stays strictly below 4. Values equal to the cut-off are Criterion not met.

Prompt: Criterion: logP strictly below 4. Is it met by `Cc1nc(C(F)(F)F)ccc1Cn1c(=O)c(-c2ccc(C#N)cc2)c(-c2ccc(Cl)cc2)c2nn(C(C)C)c(=O)n21` ?
Response: Criterion not met

Prompt: Criterion: logP strictly below 4. Is it met by `CCn1nc2c(-c3ccc(Cl)cc3)c(-c3ccc(C#N)cc3)c(=O)n(Cc3ccc(C#N)cc3)n2c1=O` ?
Response: Criterion not met

Prompt: Criterion: logP strictly below 4. Is it met by `Cn1c(=O)c(-c2ccc(Cl)cc2)c(-c2ccncc2)c2nn(Cc3ccc(C(F)(F)F)nc3)c(=O)n21` ?
Response: Criterion met

Prompt: Criterion: logP strictly below 4. Is it met by `Cn1nc2c(-c3ccc(Cl)cc3)c(-c3ccncc3)c(=O)n(Cc3ccc(C#N)cc3)n2c1=O` ?
Response: Criterion met

Prompt: Criterion: logP strictly below 4. Is it met by `O=c1n(Cc2ccc(C(F)(F)F)nc2)nc2c(-c3ccncc3)c(-c3ccc(Cl)cc3)cnn12` ?
Response: Criterion met

Prompt: Criterion: logP strictly below 4. Is it met by `Cc1nn2c(=O)n(Cc3ccc(C(F)(F)F)nc3)nc2c(-c2ccncc2)c1-c1ccc(Cl)cc1` ?
Response: Criterion met

Prompt: Criterion: logP strictly below 4. Is it met by `CCn1nc2c(-c3ccc(Cl)cc3)c(-c3ccncc3C)c(=O)n(Cc3ccc(C(F)(F)F)nc3C)n2c1=O` ?
Response: Criterion not met

Prompt: Criterion: logP strictly below 4. Is it met by `CCn1nc2c(-c3ccc(Cl)cc3)c(-c3ccc(C#N)cc3)c(=O)n(Cc3ccc(C(F)(F)F)nc3C)n2c1=O` ?
Response: Criterion not met

Prompt: Criterion: logP strictly below 4. Is it met by `CCn1nc2c(-c3ccc(Cl)cc3)c(-c3cnc(N(C)C)nc3)c(=O)n(Cc3ccc(C#N)cc3)n2c1=O` ?
Response: Criterion not met
